Source of measurements: patent US6355799B1

# Test system: johnsongrass (Sorghum halepense, SORHA)
# ASSAY TEXT: Post-emerge test, greenhouse herbicide activity screening
# Assay type: in vivo
# MEASUREMENT CONDITIONS: Sorghum halepense, post-emergence, 336 h; post-emerge, 63 g ai/ha, phytotoxicity rating 0-100 at 14 days after application; read-out: Post-emerge Herbicidal Activity SORHA
Recorded pest or weed control at 63 g/ha, one value per entry.
Just the number in %, nothing appended.

O=C(Nc1cc(Cl)ccc1N1C(=O)c2ccccc2C1=O)c1ccc2ccccc2c1; 0

Request: Which value of pest or weed control at 63 g/ha has been reported for COc1c(Cl)cc(F)c(-c2nn(C)c(C(F)(F)F)c2Cl)c1N in the records?
Response: 20

Request: Looking for the measured pest or weed control at 63 g/ha of Cc1nn(-c2c(N)cc(Cl)cc2F)c(=O)n1C(F)F , can you help?
Response: 0

Request: Quick check: pest or weed control at 63 g/ha of Cc1nn(-c2c(Cl)cc(Cl)c(N)c2N)c(=O)n1C(F)F ?
Response: 0
